Hello, the source for this data is ChEMBL document CHEMBL1201862, in case you need it.

# Test system: SK-OV-3
# ASSAY COMMENT: NCI tumour cell line growth inhibition, 48 h
Active and inactive are the calls of the source. Rule as the data show it: active = GI50 up to about 1.1 µM and inactive = higher.
Classes used: active, inactive

INSERT INTO measurements (compound, class_label) VALUES
  ('CCCCCCCC(CC(=O)NC(CO)C(=O)NC(CO)CC(C)C)OC(=O)CC(CCCCCCC)OC(=O)CC(CCCCCCC)OC1OC(C)C(O)C(OC2OC(C)C(O)C(O)C2O)C1O (stereo not given)', 'inactive'),
  ('CCCc1nnc2sc(COc3cc(Cl)c(OCc4nn5c(CCC)nnc5s4)cc3Cl)nn12', 'inactive'),
  ('CC(C)CCC[C@@H](C)C1CCC2[C@@H]3CC=C4C[C@@H](C(=O)NCCN(C)C)CC[C@]4(C)C3CC[C@@]21C (stereo not given in full)', 'inactive'),
  ('CCc1c(O)c2c(c(O)c1C(C)=O)C(=O)c1c(cc(O)c(C(=O)O)c1C(=O)O)C2=O', 'inactive'),
  ('COc1cc2ccc3c4cc(OC)c(OC)cc4c[n+](C)c3c2cc1O', 'inactive'),
  ('COC(=O)C1(C(=O)OC)N=C(C)OC1C(C)C (stereo not given)', 'inactive'),
  ('CCOC(=O)c1sc2nc(SC)nc3c2c1NCN3c1ccc(F)c(F)c1', 'inactive'),
  ('COC(=O)c1ccc2c(c1)sc1nc(-c3ccc(OC)cc3)cn12', 'inactive'),
  ('c1nc(NCCc2c[nH]cn2)c2nc[nH]c2n1', 'inactive'),
  ('CCCCCCCCCCCCCC/C(C(=O)O)=C(\C)C(=O)O', 'inactive'),
  ('Oc1ccc(Cc2cc(Cc3ccc(O)cc3)cc(Cc3ccc(O)cc3)c2)cc1', 'inactive'),
  ('CC1=[N+](C)CCCN1C', 'inactive'),
  ('N#C/C(=C(/S)Nc1ccccc1)c1nc2ccccc2[nH]1', 'active'),
  ('COC(=O)c1nn2ccc3ccccc3c2c1C(=O)OC', 'inactive'),
  ('CC(C)C(=O)/C=C/c1ccc(Cl)cc1', 'inactive'),
  ('COc1ccc2cc(C(=O)O)ccc2c1OC', 'inactive'),
  ('COC(=O)C(CC(=O)Nc1ccc(C)cc1)C(=O)C(=O)Nc1ccccc1C(C)C (stereo not given)', 'inactive'),
  ('NC(=S)NNC(=O)/C(=C/c1ccc(/C=C(\NC(=O)c2ccccc2)C(=O)NNC(N)=S)cc1)NC(=O)c1ccccc1', 'inactive'),
  ('O=C1C(Cl)=C(Sc2nnc3c4ccccc4c4ccccc4c3n2)C(=O)c2ccccc21', 'inactive'),
  ('CC1OC1P(=O)(O)O (stereo not given)', 'inactive');
